# Test system: 885724-159-R-J1-PDC KRAS PDC multicell spheroid viability;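 further: spheroids exposed to agents for 7 days before readout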
# RUN DESCRIPTION: Anticancer human tumor 885724-159-R-J1-PDC patient-derived pancreatic adenocarcinoma cell line growth inhibition [KRAS2]
# REPORTED CONDITIONS: second compound 10 µM; first compound 0.00316 µM; active compounds read low
viability, T/C strictly under 20% means Y; at 20% or over means N.

{"COMPOUND": "CN(C)C/C=C/C(=O)Nc1cc2c(Nc3ccc(F)c(Cl)c3)ncnc2cc1O[C@H]1CCOC1 + CC1OCC2(CCN(c3cnc(Sc4ccnc(N)c4Cl)c(N)n3)CC2)C1N", "CATEGORY LABEL": "N"}

Check if viability, T/C falls below 20% for CCN1CCN(Cc2ccc(Nc3ncc(F)c(-c4cc(F)c5nc(C)n(C(C)C)c5c4)n3)nc2)CC1 + CC1OCC2(CCN(c3cnc(Sc4ccnc(N)c4Cl)c(N)n3)CC2)C1N .
N

Please do the same for Cn1ncnc1[C@H]1c2n[nH]c(=O)c3cc(F)cc(c23)N[C@@H]1c1ccc(F)cc1 + C=CC(=O)N1CCN(c2nc(=O)n(-c3c(C)ccnc3C(C)C)c3nc(-c4c(O)cccc4F)c(F)cc23)C(C)C1 as well.
N

Request: CN(C)C/C=C/C(=O)Nc1cc2c(Nc3ccc(F)c(Cl)c3)ncnc2cc1O[C@H]1CCOC1 + CNCc1ccccc1-c1csc(C(C)Nc2nc(C)nc3cc(OC)c(OC)cc23)c1
Y

Also check Cn1ncnc1[C@H]1c2n[nH]c(=O)c3cc(F)cc(c23)N[C@@H]1c1ccc(F)cc1 + COc1cc2nc(C)nc(NC(C)c3cc(N)cc(C(F)(F)F)c3)c2cc1OC1CCOC1
N
